Overview of recorded melting point for various compounds

Solved entries:
Cc1cc(NC(=O)c2cc3cc(F)ccc3n2Cc2ccncc2)cnc1N(C)C ... 282 to 283 °C
CC(C)c1nc(N)oc1-c1ccc(F)c2ccccc12 ... 141 °C
c1cc2cc(N3CCOCC3)ccc2s1 ... 127 to 132 °C
Cc1ccc(-c2ccc(C(=O)Nc3ccc4nc(CN5CCCC5)ccc4c3)cc2)cc1 ... 192 to 193 °C
COc1cccc2c(=O)n(C)c(-c3ccc(OC4CCN(C5CCC5)CC4)cc3)nc12 ... 201 to 204 °C

(Q) So what does the record say about melting point for CC1(C)Oc2ccc(C(N)=S)cc2C(Oc2ccnc(O)c2)C1(C)O (stereo unspecified) ?
(A) 142 to 144 °C

(Q) So what does the record say about melting point for Fc1ccc(C(Cl)(c2ccccc2)c2ccccc2)cc1 ?
(A) 88 °C

(Q) So what does the record say about melting point for NCc1nc(-c2ncn3c2[C@@H]2CCN2C(=O)c2sccc2-3)no1 ?
(A) 235 to 238 °C

----------
Overview of recorded melting point for various molecules

(Q) So what does the record say about melting point for COc1ccnc(CS(=O)c2nc3cc(C(F)(F)F)ccc3[nH]2)c1C (stereo unspecified) ?
(A) 225 to 227 °C

(Q) So what does the record say about melting point for O=C1c2c(Cl)cccc2-n2cnc(C(=O)n3ccnc3)c2[C@@H]2CCCN12 ?
(A) 240 to 242 °C

(Q) So what does the record say about melting point for O=[N+]([O-])c1ccc2[nH]c(-c3ccccc3)cc2c1 ?
(A) 199 to 200 °C

(Q) So what does the record say about melting point for CC(=O)Oc1cc(N2C(=O)C=CC2=O)ccc1C(=O)O ?
(A) 110 to 119 °C

(Q) So what does the record say about melting point for Cn1c(OC2CCOC2)n[nH]c1=O (stereo unspecified) ?
(A) 164 °C

(Q) So what does the record say about melting point for COC(=O)C(C)=CC(C)=Cc1cc([N+](=O)[O-])ccc1Cl ?
(A) 88 to 90 °C

(Q) So what does the record say about melting point for O=C(N1CCN(c2ncccn2)CC1)N1CC(Oc2cccc(C(F)(F)F)c2)C1 ?
(A) 127 to 128 °C

(Q) So what does the record say about melting point for CCCCCCCCCCCCCCOc1ccc(C(=O)OC)cc1 ?
(A) 56 to 58 °C

(Q) So what does the record say about melting point for CC(=O)NC(C(=O)NCc1ccccc1)c1ncc[nH]1 (stereo unspecified) ?
(A) 228 to 230 °C

(Q) So what does the record say about melting point for CCCNC(=S)n1nc(Oc2c(Cl)cc(C(F)(F)F)cc2Cl)cc1C ?
(A) 71 to 73 °C

(Q) So what does the record say about melting point for CC=CC=NNC(=O)c1cnccn1 ?
(A) 192 to 194 °C

----------
Overview of recorded melting point for various compounds

N#CC(c1ccccc1Cl)N1CCOCC1 (stereo not given) ... 40 to 42 °C
COc1ccc(N2CCOCC2)c2sc(-c3nc4c([nH]3)CCN(CC(N)=O)CC4)nc12 ... 299 to 302 °C
CC(=O)Nc1ccc(OCC(F)(F)F)cc1 ... 140 to 141 °C

(Q) So what does the record say about melting point for COc1ccc(C[C@H]2CC[C@@H]3[C@@H](CCC(=O)N3Cc3ccccc3)C2)cc1 ?
(A) 118 to 119 °C

(Q) So what does the record say about melting point for O=C1C=C(NC(=O)C(=O)c2cn(Cc3cccc(Cl)c3F)c3ccccc23)CO1 ?
(A) 248 to 250 °C
